Assignment: determine reported growth for the given compounds.
Test system: ACHN renal
protocol_details: NCI-60 one-dose screen, 48 h (100 = growth as untreated, 0 = no growth, -100 = all killed)
details: 10 µM unless noted
The panel holds about 83,000 compounds, 20% with a hit somewhere; the sample as a whole holds those more often.
Just the number please, in %, no unit attached.

Exercise: Recorded growth for CC(=O)c1nn(-c2ccccc2)/c(=N\N=C\c2coc3ccc(F)cc3c2=O)s1 , please?
Solution: 94

Exercise: Recorded growth for Fc1cc(-c2nnc3sc(-c4ccc(Cl)cc4)nn23)c(Cl)cc1Cl , please?
Solution: 101

Exercise: Recorded growth for Oc1ccc(Cl)cc1-c1cc(-c2ccccc2Cl)[nH]n1 , please?
Solution: 59

Exercise: Recorded growth for CN(C)CCOc1nc2c3ccncc3cc(-c3cccc(Cl)c3)c2c2cnccc12 , please?
Solution: 14.5
